# Experimental target: Complement C1q (UniProt P02745;P02746;P02747 P02745:23-245,P02746:28-253,P02747:29-245)
# Procedure details: filter; MgPBS 37C; text states range 0.29-3.9 nM for best ligands
# Condition label: tags: Quidel; chain copies: 6
Measured parameter: Kd (nM)
Please state the figure in nM; there is no need to write the unit.

Data point: C1q clone 23 (ssRNA, 2'-NH2 pyrimidines) RNA: GGGAGGACGAUGCGGCACUCACCUUCAUAUUGGCCGCCAUCCCCAGGGUUGAGCCCAGACACAGCAGACGACUCGCCCGA ; Kd = 23
